- target.of.assay: MDMX (Homo sapiens, UniProt O15151)
- Sequence (O15151 1-125): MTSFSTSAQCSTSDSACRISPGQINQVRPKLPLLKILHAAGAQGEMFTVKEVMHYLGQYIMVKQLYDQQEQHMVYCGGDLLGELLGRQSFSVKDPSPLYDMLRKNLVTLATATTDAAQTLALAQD
- assay.method.text: Competitive fluorescence polarization assay for MDMX
- Type: binding
- conditions.used: competitive FP assay, read-out: Ki (MDMX)
pKi: −log10 of the molar value. Where a SMILES comes first, the peptide text is derived from it. Bridges are numbered along the chain shown (N, C = ends). [ ]: non-standard residue; d: D form. R8 = C=CCCCCCC[C@@](C)(N)C(=O)O; S5 = C=CCCC[C@](C)(N)C(=O)O; Nle = CCCC[C@H](N)C(=O)O
Listed here: items and their measured pKi.
readout.label: pKi

{"compound": "CCCC[C@H](NC(=O)[C@H](C)NC(=O)[C@H](C)NC(=O)[C@]1(C)CCCC=CCCCCCC[C@@](C)(NC(=O)[C@H](Cc2ccccc2)NC(=O)[C@H](C)NC(=O)[C@H](C)NC(=O)[C@H](C)NC(C)=O)C(=O)N[C@@H](CCC(=O)O)C(=O)N[C@@H](Cc2ccc(O)cc2)C(=O)N[C@@H](Cc2c[nH]c3ccccc23)C(=O)N[C@@H](C)C(=O)N[C@@H](CCC(N)=O)C(=O)N[C@@H](CC(C)C)C(=O)N1)C(=O)N[C@@H](C)C(N)=O [compound 372] (Ac-AAAF[R8]EYWAQL[S5]AA[Nle]A-NH2; staple 5-12)", "readout.label": "pKi", "assay.result": "7.00 to 8.00"}
{"compound": "CC(=O)N[C@@H](CC(C)C)C(=O)N[C@H](C(=O)N[C@@H](Cc1ccccc1)C(=O)N[C@]1(C)CCCCCCC=CCCC[C@@](C)(C(=O)N[C@@H](C)C(=O)N[C@@H](C)C(=O)N[C@@H](C)C(N)=O)NC(=O)[C@H](CC2CCC2)NC(=O)[C@H](CCC(N)=O)NC(=O)[C@H](C)NC(=O)[C@H](Cc2c[nH]c3ccccc23)NC(=O)[C@H](Cc2ccc(O)cc2)NC(=O)[C@H](CCC(=O)O)NC1=O)[C@@H](C)O (single isomer, unassigned) [compound 716]", "readout.label": "pKi", "assay.result": "> 8.00"}

* * *

- target.of.assay: MDM2 (Homo sapiens, UniProt Q00987)
- Sequence (Q00987 1-125): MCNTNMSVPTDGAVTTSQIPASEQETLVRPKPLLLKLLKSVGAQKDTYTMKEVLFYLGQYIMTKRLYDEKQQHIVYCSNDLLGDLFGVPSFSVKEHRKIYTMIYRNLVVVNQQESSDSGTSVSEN
- assay.method.text: Competitive fluorescence polarization assay for MDM2
- Assay type: binding
- conditions.used: competitive FP assay, MDM2; read-out: IC50 (MDM2)
List of IC50 values.
readout.label: IC50

{"molecule": "CCCC[C@H](NC(=O)[C@H](C)NC(=O)[C@H](C)NC(=O)[C@]1(C)CCCC=CCCCCCC[C@@](C)(NC(=O)[C@H](Cc2ccc(F)c(F)c2)NC(=O)[C@@H](NC(=O)[C@H](CC(C)C)NC(C)=O)[C@@H](C)O)C(=O)N[C@@H](C)C(=O)N[C@@H](Cc2ccc(O)cc2)C(=O)N[C@@H](Cc2c[nH]c3ccccc23)C(=O)N[C@@H](C)C(=O)N[C@@H](CCC(N)=O)C(=O)N[C@@H](CCC(C)C)C(=O)N1)C(=O)N[C@@H](C)C(N)=O (single isomer, unassigned) [compound 308]", "readout.label": "IC50", "assay.result": "100 to 1000 nM"}
{"molecule": "CC[C@H](C)[C@H](NC(=O)[C@H](C)NC(=O)[C@H](C)NC(=O)[C@]1(C)CCCC=CCCCCCC[C@@](C)(NC(=O)[C@H](Cc2ccccc2)NC(=O)[C@@H](NC(=O)[C@H](CC(C)C)NC(C)=O)[C@@H](C)O)C(=O)N[C@@H](CCC(=O)O)C(=O)N[C@@H](Cc2ccc(C(=O)O)cc2)C(=O)N[C@@H](Cc2c[nH]c3cc(Cl)ccc23)C(=O)N[C@@H](C)C(=O)N[C@@H](CCC(N)=O)C(=O)N[C@@H](CC2CCC2)C(=O)N1)C(=O)N[C@H](C)C(N)=O (single isomer, unassigned) [compound 336]", "readout.label": "IC50", "assay.result": "< 10 nM"}
